- Tested on: Vero E6 infected with SARS-CoV-2
- ASSAY_SUMMARY: inhibition of SARS-CoV-2 cytopathic effect; higher = more antiviral protection, active = above 15
- REPORTED_CONDITIONS: 10000 nM; 48 h
QUANTITY_KIND: inhibition of SARS-CoV-2 cytopathic effect (%)

| MOLECULE | QUANTITY_UNIT | REPORTED_VALUE |
| --- | --- | --- |
| O=C1c2ccccc2C(=O)C1c1ccc(Br)cc1 [bromindione] | % | 0.05 |
| CCOP(=S)(OCC)Oc1ccc2c(C)c(Cl)c(=O)oc2c1 [coumophos] | % | -0.05 |
| C[C@H]1[C@H](OC(=O)CCC(=O)O)O[C@@H]2O[C@@]3(C)CC[C@H]4[C@H](C)CC[C@@H]1[C@@]24OO3 [artesunate] | % | -11.7 |
| CC(C)=CCC[C@](C)(O)[C@H]1CC[C@]2(C)[C@@H]1[C@H](O)C[C@@H]1[C@@]3(C)CC[C@H](O)C(C)(C)[C@@H]3[C@@H](O)C[C@]12C [hemomex-s] | % | 0.84 |
| CC[C@H](NC(=O)c1c(C)c(-c2ccccc2)nc2ccccc12)c1ccccc1 | % | -2.21 |
| COc1cc(OC2CCN(C)CC2)ccc1Nc1ncc2c(n1)n(C1CCCC1)c(=O)n2C | % | 11.1 |
| NC(=S)N/N=C/c1ccncc1 [perchlozone] | % | 3.63 |
| CC(C)(C)NCC(O)c1ccccc1Cl (stereo not drawn) [tulobuterol] | % | 2 |
| CCc1oc2ccccc2c1C(=O)c1cc(Br)c(O)c(Br)c1 [benzbromarone] | % | 0.48 |
| Fc1ccc(Cl)cc1-c1nc(Nc2ccncc2)c2nccnc2n1 | % | -7.46 |
| CCN(CC)CCOc1ccc(Cc2ccccc2)cc1 | % | -0.76 |
| COCC[n+]1c2c(n(Cc3cnccn3)c1C)C(=O)c1ccccc1C2=O | % | -9.2 |
| CCn1cc(-c2ccnc3[nH]c(-c4cccc(CN(C)C)c4)cc23)c(-c2ccc(NC(=O)N(C)C)cc2)n1 | % | 1.16 |
| O=C(O)c1cc(-c2ccccc2)nc2ccccc12 [cinchophen] | % | 2.97 |
| O=C1C(O)=C([C@H]2CC[C@H](c3ccc(Cl)cc3)CC2)C(=O)c2ccccc21 [atovaquone] | % | -9.21 |
| Cn1cnc2c1c(=O)[nH]c(=O)n2C [theobromine] | % | -1.36 |
| CCn1c(O)nnc1-c1ccc(Cl)cc1 [5-(4chlorophenyl)-4-ethyl-2,4-dihydro-3H-1,2,4-triazol-3-one] | % | 0.03 |
| O=C(NNC(=O)c1ccc(CNS(=O)(=O)c2ccc(F)c(Cl)c2)cc1)c1ccccc1 | % | -0.76 |
| COc1ccc2c(NC(=O)Nc3cccc(C(F)(F)F)n3)ccnc2c1 | % | 11.1 |
| O=S(=O)(O)CCSSCCS(=O)(=O)O [dimesna] | % | -1.4 |
| C=CCN1CC[C@]2(C)c3cc(O)ccc3C[C@H]1[C@H]2C | % | 1.02 |
| CNCC[C@H](Oc1cccc2ccccc12)c1cccs1 [duloxetine] | % | -6.87 |
| Cc1c(N2C(=O)[C@@H]3[C@H](O)CCN3C2=O)ccc(C#N)c1Cl | % | 1.06 |
| CC(C)(C(=O)O)c1ccc(C(O)CCCN2CCC(C(O)(c3ccccc3)c3ccccc3)CC2)cc1 (stereo not drawn) [fexofenadine] | % | 2.18 |
| CN(C(=O)/C=C/c1ccoc1)[C@@H]1CC[C@@]2(O)[C@H]3Cc4ccc(O)c5c4[C@@]2(CCN3CC2CC2)[C@H]1O5 [nalfurafine] | % | -1.57 |
| C=C1CC[C@@]2(O)[C@H]3Cc4ccc(O)c5c4[C@@]2(CCN3CC2CC2)[C@H]1O5 [nalmefene] | % | -3.45 |
| COc1ccc(-c2ccc3c(N4CCOCC4)nc(N4C[C@@H](C)O[C@@H](C)C4)nc3n2)cc1CO | % | -2.33 |
| O=C(O)/C=C\c1c[nH]cn1 [cis-Urocanic acid] | % | 1.12 |
| C[C@@H](CN(C)C)CN1c2ccccc2Sc2ccccc21 (racemic) [alimemazine] | % | -0.47 |
| Cc1ccc(OC[C@@H](O)[C@H](C)NC(C)C)c2c1CCC2 (racemic) | % | -1.51 |
| CC(C)=CC[C@@H](O)C1=CC(=O)c2c(O)ccc(O)c2C1=O [Shikonin] | % | 2.04 |
| CC(C)c1cnn2c(NCc3ccccc3)cc(NCCCCCCN)nc12 | % | -12.8 |
| C[C@]12CC[C@H](O)C[C@H]1CC[C@@H]1[C@@H]2CC[C@]2(C)[C@@H](c3ccc(=O)oc3)C[C@H]3O[C@]132 [resibufogenin] | % | -20.4 |
| CN1CCN(C(=O)c2cc3cc(Cl)ccc3[nH]2)CC1 | % | -1.13 |
| CN(Cc1cnc2nc(N)nc(N)c2n1)c1ccc(C(=O)N[C@@H](CCC(=O)O)C(=O)O)cc1 [methotrexate] | % | -1.41 |
| O=C(CC1NCCCC1O)Cn1cnc2cc(Br)c(Cl)cc2c1=O (stereo not drawn) [halofuginone] | % | -13.9 |
| CN1CCN(CCc2ccc(Cl)c(Cl)c2)CC1 | % | -1.14 |
| CCOC(CN1CCN(CC(C)C(=O)c2ccccc2)CC1)c1ccccc1 (stereo not drawn) [eprazinone] | % | 0.89 |
